Each record here notes measured Ki.
Target: human α2δ-1 subunit of Cav2.2 calcium channel (Homo sapiens (Human), UniProt P54289)
Sequence (P54289 25-1103): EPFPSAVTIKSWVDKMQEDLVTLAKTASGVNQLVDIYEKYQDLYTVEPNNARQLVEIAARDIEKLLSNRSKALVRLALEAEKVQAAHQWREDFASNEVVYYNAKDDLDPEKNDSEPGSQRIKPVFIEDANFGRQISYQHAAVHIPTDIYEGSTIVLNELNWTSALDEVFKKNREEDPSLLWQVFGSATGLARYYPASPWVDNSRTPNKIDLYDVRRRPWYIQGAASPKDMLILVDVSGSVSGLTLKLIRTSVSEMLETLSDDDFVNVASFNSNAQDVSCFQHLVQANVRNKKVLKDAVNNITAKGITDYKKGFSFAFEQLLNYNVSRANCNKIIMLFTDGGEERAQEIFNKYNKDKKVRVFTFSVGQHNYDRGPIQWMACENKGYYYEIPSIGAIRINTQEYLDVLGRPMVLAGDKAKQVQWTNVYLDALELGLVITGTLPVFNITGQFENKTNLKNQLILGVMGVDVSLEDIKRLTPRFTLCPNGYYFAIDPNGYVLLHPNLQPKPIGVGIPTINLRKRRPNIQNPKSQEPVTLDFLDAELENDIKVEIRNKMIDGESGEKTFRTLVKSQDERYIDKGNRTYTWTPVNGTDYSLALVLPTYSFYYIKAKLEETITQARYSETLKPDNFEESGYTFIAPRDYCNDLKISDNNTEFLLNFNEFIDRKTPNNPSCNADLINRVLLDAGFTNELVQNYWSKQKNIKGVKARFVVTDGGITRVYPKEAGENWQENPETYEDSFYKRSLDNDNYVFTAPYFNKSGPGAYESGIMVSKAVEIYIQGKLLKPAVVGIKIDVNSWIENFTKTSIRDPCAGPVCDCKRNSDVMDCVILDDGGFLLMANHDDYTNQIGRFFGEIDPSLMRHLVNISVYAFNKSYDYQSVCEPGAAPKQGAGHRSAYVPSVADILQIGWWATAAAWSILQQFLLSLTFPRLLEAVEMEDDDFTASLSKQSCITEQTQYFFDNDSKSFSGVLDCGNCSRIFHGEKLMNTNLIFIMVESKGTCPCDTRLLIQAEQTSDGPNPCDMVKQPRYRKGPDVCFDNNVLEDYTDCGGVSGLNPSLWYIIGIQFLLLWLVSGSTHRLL
Experiment: Binding assay to human α2δ-1 subunit of Cav2.2 calcium channel ([3H]-Gabapentin)
Settings: binding to α2δ-1, [3H]-Gabapentin; read-out: Ki (nM) α2δ-1
quantity kind: Ki

                                   molecule                             tested_system  quantity_kind            val
0  CCNc1ncc2c(n1)N(C)CCN(c1cccc(O[C@@H](CCN(C)C(=O)OC(C)(C)C)c3ccccc3)c1)C2=O  human α2δ-1 subunit of Cav2.2 calcium channel (Homo sapiens (Human), UniProt P54289)             Ki      > 3000 nM
1  CCNc1ncc2c(n1)N(C)CCN(c1cccc(OC(CCN(C)C(=O)OC(C)(C)C)c3ccccn3)c1)C2=O (centres unmarked)  human α2δ-1 subunit of Cav2.2 calcium channel (Homo sapiens (Human), UniProt P54289)             Ki      > 3000 nM
2  CCNc1ncc2c(n1)N(C)CCN(c1ccccc1OC(CCNC)c1ccccc1)C2=O (centres unmarked)  human α2δ-1 subunit of Cav2.2 calcium channel (Homo sapiens (Human), UniProt P54289)             Ki      > 3000 nM
3  CN(CCC(OCc1cccc(N2CCN(C)c3cc(Cl)ncc3C2=O)c1)c1ccccc1)C(=O)OC(C)(C)C (centres unmarked)  human α2δ-1 subunit of Cav2.2 calcium channel (Homo sapiens (Human), UniProt P54289)             Ki      > 3000 nM
4  CCNc1ncc2c(n1)N(C)CCN(c1cccc(-n3cc(CN4CCC5(CC4)CN(C(C)C)C(=O)[C@@H](C)O5)nn3)c1)C2=O  human α2δ-1 subunit of Cav2.2 calcium channel (Homo sapiens (Human), UniProt P54289)             Ki  100 to 500 nM
5  CCNc1ncc2c(n1)N(C)CCN(c1cccc(-n3cnc(CN(C)Cc4ccccc4)c3)c1)C2=O  human α2δ-1 subunit of Cav2.2 calcium channel (Homo sapiens (Human), UniProt P54289)             Ki  100 to 500 nM
6  Cc1nnc(-c2cccc(N3CCN(C)c4nc(NCC(C)C)ncc4C3=O)c2)o1  human α2δ-1 subunit of Cav2.2 calcium channel (Homo sapiens (Human), UniProt P54289)             Ki      > 3000 nM
7  Cc1nnc(-c2cccc(N3CCN(C)c4nc(NCCc5ccccc5)ncc4C3=O)c2)o1  human α2δ-1 subunit of Cav2.2 calcium channel (Homo sapiens (Human), UniProt P54289)             Ki      > 3000 nM

====

Molecular target: human norepinephrine transporter (NET) (Homo sapiens (Human))
Sequence (P23975 whole entry): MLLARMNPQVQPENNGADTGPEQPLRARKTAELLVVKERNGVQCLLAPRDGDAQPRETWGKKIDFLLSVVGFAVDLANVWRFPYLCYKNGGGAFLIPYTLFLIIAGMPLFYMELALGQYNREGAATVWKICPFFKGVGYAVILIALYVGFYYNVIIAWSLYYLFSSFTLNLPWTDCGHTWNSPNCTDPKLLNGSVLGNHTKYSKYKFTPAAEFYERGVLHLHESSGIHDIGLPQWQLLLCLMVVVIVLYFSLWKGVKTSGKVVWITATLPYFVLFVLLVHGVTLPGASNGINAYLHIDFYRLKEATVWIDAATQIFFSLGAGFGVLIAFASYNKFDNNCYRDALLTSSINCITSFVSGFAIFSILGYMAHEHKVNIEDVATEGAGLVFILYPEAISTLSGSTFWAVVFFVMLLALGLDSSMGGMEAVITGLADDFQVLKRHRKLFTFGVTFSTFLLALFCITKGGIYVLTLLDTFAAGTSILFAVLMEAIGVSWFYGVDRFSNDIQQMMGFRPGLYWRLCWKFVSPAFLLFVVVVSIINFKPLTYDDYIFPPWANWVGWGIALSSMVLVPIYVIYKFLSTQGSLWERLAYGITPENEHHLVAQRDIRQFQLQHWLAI
Assay: Binding assay to human norepinephrine transporter (NET) ([3H]-Nisoxetin)
Conditions: Table 2, dual compounds; [3H]-Nisoxetin binding
Each record here notes measured Ki.
quantity kind: Ki

                                   compound                             tested_system  quantity_kind             val
0  CNCC[C@H](Oc1ccc(CN2CCN(C)c3ccncc3C2=O)cc1)c1cccs1  human norepinephrine transporter (NET) (Homo sapiens (Human))             Ki   100 to 500 nM
1  CCNc1ncc2c(n1)N(C)CCN(c1cccc(COCC(NC)c3ccccc3)c1)C2=O (centres unmarked)  human norepinephrine transporter (NET) (Homo sapiens (Human))             Ki  500 to 1000 nM
2  CNCC[C@@H](OCc1cccc(N2CCN(C)c3nc(NCc4ccccn4)ncc3C2=O)c1)c1ccccc1  human norepinephrine transporter (NET) (Homo sapiens (Human))             Ki   100 to 500 nM
3  CSc1ncc2c(n1)N(C)CCN(c1cccc(COC3(c4ccccc4)CCNCC3)c1)C2=O  human norepinephrine transporter (NET) (Homo sapiens (Human))             Ki       > 1000 nM
4  CNCC(OCc1cccc(CN2CCN(C)c3nc(SC)ncc3C2=O)c1)c1ccccc1 (centres unmarked)  human norepinephrine transporter (NET) (Homo sapiens (Human))             Ki   100 to 500 nM
5  CCc1ncc2c(n1)N(C)CCN(Cc1ccc(OC(CCNC)c3ccccc3)cc1)C2=O (centres unmarked)  human norepinephrine transporter (NET) (Homo sapiens (Human))             Ki        < 100 nM
6  CNCCC(OCc1cccc(N2CCN(C)c3nc(NCc4ccccc4)ncc3C2=O)c1)c1ccccc1 (centres unmarked)  human norepinephrine transporter (NET) (Homo sapiens (Human))             Ki        < 100 nM
7  CCNc1ncc2c(n1)N(C)CCN(c1cccc(COC(CNC)c3ccccc3)c1)C2=O (centres unmarked)  human norepinephrine transporter (NET) (Homo sapiens (Human))             Ki       > 1000 nM

Attribution: patent US10590140B2
